Experiment: Clearance in Sprague-Dawley rat
Assay type: ADME, organism-based
Conditions: in vivo
value.type: clearance (mL/min/kg)

Use these answered entries as a reference point.
smiles.input | value.type | readout.unit | readout.number
CC(C)c1cc(C(C)C)n(C[C@H](OC(=O)Nc2ccc(F)cc2F)C(C)C)n1 | clearance | mL/min/kg | 81.7
CC(C)c1cc(C(C)C)n(C[C@H](NC(=O)Nc2ccc(F)cc2F)C(C)C)n1 | clearance | mL/min/kg | 50

(a) CCOc1ccc(NC(=O)O[C@@H](Cn2nc(C(C)C)cc2C(C)C)C(C)C)cc1
(b) CC[C@H](Cn1nc(C(F)(F)F)cc1C1CCCC1)OC(=O)Nc1ccc(F)cc1F
Qu. Between a and b , whose recorded clearance is greater? // respond with label for picked entry
Ans. b

---

Target: Neuronal acetylcholine receptor; alpha4/beta2 (Homo sapiens) (UniProt P17787+P43681)
Experiment: Activity at human alpha4beta2 nAChR assessed as potentiation of nicotine-induced response by fluorescent Ca2+ flux assay relative to nicotine
value.type: Efficacy (%)

Previously resolved entries follow.
compound | Efficacy (%)
CC(C)c1cc(C(C)C)n(C[C@H](OC(=O)Nc2ccc(Cl)cc2)C(C)C)n1 | 91
CC[C@H](Cn1nc(C(F)(F)F)cc1C1CC1)OC(=O)Nc1ccc(F)cc1F | 54

(1) CC[C@H](Cn1nc(C)cc1C)OC(=O)Nc1ccc(F)cc1F
(2) CC(C)c1cc(C(C)C)n(C[C@H](OC(=O)Nc2ccc(C(F)(F)F)cc2)C(C)C)n1
Qu. Could you please tell me which of these two has the higher Efficacy: 1 or 2 ? Choose, then provide that item's label.
Ans. 2

(A) CC(C)c1cc(C(C)C)n(CC(OC(=O)Nc2ccsc2)C(C)C)n1 (racemic)
(B) CC[C@H](Cn1nc(C(F)(F)F)cc1C1CCCCC1)OC(=O)Nc1ccc(F)cc1F
(C) Cc1ccc(NC(=O)O[C@@H](Cn2nc(C(C)C)cc2C(C)C)C(C)C)cc1
Qu. Could you please order the items by Efficacy, going from the lowest number to the highest? Arrange the labels as the request states and list them.
Ans. A, C, B

(I) CC[C@H](Cn1nc(C(F)(F)F)cc1C1=CCCC1)OC(=O)Nc1ccc(F)cc1F
(II) COc1ccc(NC(=O)O[C@@H](Cn2nc(C(C)C)cc2C(C)C)C(C)C)cc1
Qu. API: POST /compare with I and II ; response names the item with higher Efficacy. Reply with the label of the item you choose.
Ans. II
(II: 77%, I: 20%)

---

Target: Neuronal acetylcholine receptor; alpha4/beta2 (Homo sapiens) (UniProt P17787+P43681)
Assay: Activity at human alpha4beta2 nAChR assessed as potentiation of nicotine-induced response by fluorescent Ca2+ flux assay
value.type: EC12 (µM)

compound | readout.unit | EC12
CC(C)c1cc(C(C)C)n(CC(OC(=O)Nc2ccsc2)C(C)C)n1 (racemic) | µM | 0.7
CC[C@H](Cn1ccc(C(F)(F)F)n1)OC(=O)Nc1ccc(F)cc1F | µM | 0.89
CC(C)c1cc(C(C)C)n(C[C@@H](C)OC(=O)Nc2ccc(F)cc2F)n1 | µM | 0.7
CC[C@H](Cn1nc(C(F)(F)F)cc1C1CCCCC1)OC(=O)Nc1ccc(F)cc1F | µM | 0.38
CC(C)[C@H](Cn1nc(C(F)(F)F)cc1C(F)(F)F)OC(=O)Nc1ccc(F)cc1F | µM | 3.9
CC(C)c1cc(C(C)C)n(C[C@H](OC(=O)Nc2ccc(Oc3ccccc3)cc2)C(C)C)n1 | µM | 0.34
CC(C)c1cc(C(C)C)n(CC(OC(=O)Nc2ccccc2)C(C)C)n1 (racemic) | µM | 0.38
CC(C)c1cc(C(C)C)n(C[C@H](OC(=O)NC2CCCCC2)C(C)C)n1 | µM | 2.7
Cc1cccc(NC(=O)O[C@@H](Cn2nc(C(C)C)cc2C(C)C)C(C)C)c1 | µM | 0.9
CCCOc1ccc(NC(=O)O[C@@H](Cn2nc(C(C)C)cc2C(C)C)C(C)C)cc1 | µM | 0.33

(a) CC[C@H](Cn1nc(C)cc1C)OC(=O)Nc1ccc(F)cc1F
(b) CC(C)c1cc(C(C)C)n(CC(OC(=O)Nc2ccc(F)cc2F)C(C)(C)C)n1 (racemic)
(c) CC(C)c1cc(C(C)C)n(C[C@H](OC(=O)Nc2ccc(C(F)(F)F)cc2)C(C)C)n1
Qu. Could you please sort these 3 entries by EC12 from high to low? Rank them, then answer with their labels in that order.
Ans. b, a, c

(a) CC(C)[C@H](Cn1nc(C(F)(F)F)cc1-c1ccccc1)OC(=O)Nc1ccc(F)cc1F
(b) CC[C@H](Cn1nc(C(C)C)cc1C(C)C)OC(=O)Nc1ccc(F)cc1F
Qu. Pick one: a or b . Which one has the lower reported EC12? Give the label under which the chosen entry appears.
Ans. b
(b: 0.38 µM, a: 2.4 µM)

---

Molecular target: Neuronal acetylcholine receptor; alpha4/beta2 (Homo sapiens) (UniProt P17787+P43681)
Test: Activity at human alpha4beta2 nAChR assessed as potentiation of nicotine-induced response by fluorescent Ca2+ flux assay
value.type: EC12 (µM)

Example molecules with recorded EC12:
smiles.input | readout.unit | EC12
CCOc1ccc(NC(=O)O[C@@H](Cn2nc(C(C)C)cc2C(C)C)C(C)C)cc1 | µM | 0.11
CC(C)c1cc(C(C)C)n(C[C@H](NC(=O)Nc2ccc(F)cc2F)C(C)C)n1 | µM | 0.31
CC(C)c1cc(C(C)C)n(C[C@H](OC(=O)Nc2ccc(F)cc2F)C(C)C)n1 | µM | 0.25

(I) CCc1cc(C(F)(F)F)nn1C[C@H](OC(=O)Nc1ccc(F)cc1F)C(C)C
(II) CC(C)c1cc(C(C)C)n(C[C@H](OC(=O)Nc2ccc(Cl)cc2)C(C)C)n1
(III) COc1ccc(NC(=O)O[C@@H](Cn2nc(C(C)C)cc2C(C)C)C(C)C)cc1
(IV) CC[C@H](Cn1nc(C(F)(F)F)cc1C1CC1)OC(=O)Nc1ccc(F)cc1F
Qu. Let's sort these by EC12, smallest first. Go ahead? Labels, requested order.
Ans. III, I, II, IV

---

Target: Neuronal acetylcholine receptor; alpha4/beta2 (Homo sapiens) (UniProt P17787+P43681)
Assay: Activity at human alpha4beta2 nAChR assessed as potentiation of nicotine-induced response by fluorescent Ca2+ flux assay
value.type: EC12

compound | tested.on | result
CC(C)c1cc(C(C)C)n(C[C@H](OC(=O)Nc2ccncc2)C(C)C)n1 | Neuronal acetylcholine receptor; alpha4/beta2 (Homo sapiens) (UniProt P17787+P43681) | > 100 µM
CC[C@H](Cn1nc(C(F)(F)F)cc1C1CCCO1)OC(=O)Nc1ccc(F)cc1F (stereo partly drawn) | Neuronal acetylcholine receptor; alpha4/beta2 (Homo sapiens) (UniProt P17787+P43681) | > 100 µM
Cc1ccccc1NC(=O)O[C@@H](Cn1nc(C(C)C)cc1C(C)C)C(C)C | Neuronal acetylcholine receptor; alpha4/beta2 (Homo sapiens) (UniProt P17787+P43681) | > 100 µM
CC(C)[C@H](Cn1cccn1)OC(=O)Nc1ccc(F)cc1F | Neuronal acetylcholine receptor; alpha4/beta2 (Homo sapiens) (UniProt P17787+P43681) | > 50 µM
CC(C)c1cc(C(C)C)n([C@@H](C)[C@@H](C)OC(=O)Nc2ccc(F)cc2F)n1 (racemic) | Neuronal acetylcholine receptor; alpha4/beta2 (Homo sapiens) (UniProt P17787+P43681) | > 100 µM
CC(C)c1cc(C(C)C)n(C[C@@H](OC(=O)Nc2ccc(F)cc2F)C(C)C)n1 | Neuronal acetylcholine receptor; alpha4/beta2 (Homo sapiens) (UniProt P17787+P43681) | > 50 µM
CC(C)c1cc(C(C)C)n(C[C@@H](NC(=O)Nc2ccc(F)cc2F)C(C)C)n1 | Neuronal acetylcholine receptor; alpha4/beta2 (Homo sapiens) (UniProt P17787+P43681) | > 10 µM

Let us move to another entry and its EC12.
Qu. Note EC12 for the compound shown: "CC[C@H](Cn1nc(C(F)(F)F)cc1C1CCNCC1)OC(=O)Nc1ccc(F)cc1F"
Ans. > 100 µM
